protocol: yeast display, Sf9 membrane polyspecificity reagent, FACS + sequencing; frameworks hold sequencing errors
experimentalEndpoint: polyreactivity (PSR sort gate)

{"columns": ["primarySequence", "experimentalEndpoint", "valueReported"],
 "data": [
  ["QVQLVESGGGLVQAGGSLRLSSAASGFIFGSNAMGWYRQAPGKERELVAAISRSGGSTYYADSVKGRFTISRDNAKNTVYLQMNSLKPEDTAVYYCASYLYKSRYLPEYDYWGQGTQVTVSS", "polyreactivity (PSR sort gate)", "high polyreactivity"],
  ["QVQLVESGGGLVQAGGSLRLSCAASGNTFTAYVMGWYRQAPGKERELVAGISGRGSSTYYADSVKGRFTISRDNAKNTVYLQMNSLKQEDTAVYYCAAVRTLRTWVYGRYDYWGQGTQVTVSS", "polyreactivity (PSR sort gate)", "high polyreactivity"],
  ["QVQLVESGGGLVQAGGSLRLSCAASGSTFYWYTMGWYRQAPGKEREMVATITSVGRTNYADSVKGRFTISRDNAKNTVYLQMNSLKPEDTAVYYCAASKARWPRGGSKYYYWGQGTQVSVSS", "polyreactivity (PSR sort gate)", "high polyreactivity"],
  ["QVQLVESGGGLVQAGGSLRLSCAASGSIFGYYTMGWYRKAPGKERELVAAITSGGSTNYADSVKGRFTISRDNAKNTVYLQMNSLKPEDTAVYYCAKVSYYPWRYDYWGQGTQVTVSS", "polyreactivity (PSR sort gate)", "low polyreactivity"],
  ["QVQLVESGGGLVQAGGSLGLSCAASGRIFSRNAMGWYRQATGKEREFVAAISRRGTSTYYADSVKGRFTISRDNAMNTVYLQMNSLNPESTAVYYCNVDQWASQRYSRYDYWGQGTQVTVSW", "polyreactivity (PSR sort gate)", "high polyreactivity"]
]}

Dear colleague, I am looking for the recorded polyreactivity (PSR sort gate) of the following sequence: QVQLVESGGGLVQAGGSLRLSCAASGFIFRRYAMGWYRQPPGKERELVAAISGSGGRTYYADSVKGRFTISRDNAKNTVYLQMNSLKPEDTAVYYCAADHGSLLYDYWGQGTQVTVSS
high polyreactivity

Dear colleague, I am looking for the recorded polyreactivity (PSR sort gate) of the following sequence: QVQLVESGGGLVQAGGSLRLSFAASGSTIGDNAMGWYRQAPGKERELVAVITSDTSTYYADSVKGRFTISRDNAMNTVYLQMNSLKPEDTAVYYCAADWGGLWFWYEYWGQGTQVTVSS
low polyreactivity

Dear colleague, I am looking for the recorded polyreactivity (PSR sort gate) of the following sequence: QVQLVESGVGLVQAVGSLRISCAACGSIFGRYGMGWYRQAPGKERELVAAITSGTRTNYADSVKGRFTISRDNAKNTVYLQMNSLKPEDTAVYYCNALRLRGIYEYGYWGLGTQVTVSS
low polyreactivity
